Biological target: Cytochrome P450 11B2, mitochondrial (Homo sapiens, UniProt P19099)
Sequence (P19099 whole entry): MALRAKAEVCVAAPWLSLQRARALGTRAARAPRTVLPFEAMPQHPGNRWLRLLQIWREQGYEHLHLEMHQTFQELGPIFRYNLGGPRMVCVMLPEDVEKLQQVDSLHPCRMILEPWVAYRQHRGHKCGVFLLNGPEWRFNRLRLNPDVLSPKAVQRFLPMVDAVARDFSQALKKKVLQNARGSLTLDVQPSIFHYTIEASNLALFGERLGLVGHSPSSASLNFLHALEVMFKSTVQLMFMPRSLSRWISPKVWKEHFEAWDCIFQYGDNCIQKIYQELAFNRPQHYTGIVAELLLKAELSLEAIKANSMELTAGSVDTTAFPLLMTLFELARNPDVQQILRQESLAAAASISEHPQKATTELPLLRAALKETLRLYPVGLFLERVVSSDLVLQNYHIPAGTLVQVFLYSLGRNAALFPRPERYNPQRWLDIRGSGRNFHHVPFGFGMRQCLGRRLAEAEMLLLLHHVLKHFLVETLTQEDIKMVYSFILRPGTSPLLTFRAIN
Experiment: Inhibition of CYP11B2 […] cells using [3H]-11-deoxycorticosterone as substrate incubated for 1 hr prior to substrate addition measured after 45 mins by HPLC analysis
Provide the recorded IC50 for the entries that follow.
Quick note: give the figure in nM, leave out the unit.

Query :: Any idea what IC50 was measured for O=C1CSc2cc(-c3cccnc3)ccc2N1 ?
Result :: 12

Query :: Next up: O=C1NCc2cc(-c3cccnc3)ccc2N1
Result :: 228

Query :: Now consider CN1C(=O)COc2cc(-c3cccnc3)ccc21 .
Result :: 11

Query :: Another: O=C1CCc2cc(-c3cccnc3)ccc2N1
Result :: 28
